target: mouse MSR1 on RAW264.7 cells (mouse) (UniProt P30204); test: flow cytometry, RAW264.7 cells, 10 ug/mL
Sequence (P30204 whole entry): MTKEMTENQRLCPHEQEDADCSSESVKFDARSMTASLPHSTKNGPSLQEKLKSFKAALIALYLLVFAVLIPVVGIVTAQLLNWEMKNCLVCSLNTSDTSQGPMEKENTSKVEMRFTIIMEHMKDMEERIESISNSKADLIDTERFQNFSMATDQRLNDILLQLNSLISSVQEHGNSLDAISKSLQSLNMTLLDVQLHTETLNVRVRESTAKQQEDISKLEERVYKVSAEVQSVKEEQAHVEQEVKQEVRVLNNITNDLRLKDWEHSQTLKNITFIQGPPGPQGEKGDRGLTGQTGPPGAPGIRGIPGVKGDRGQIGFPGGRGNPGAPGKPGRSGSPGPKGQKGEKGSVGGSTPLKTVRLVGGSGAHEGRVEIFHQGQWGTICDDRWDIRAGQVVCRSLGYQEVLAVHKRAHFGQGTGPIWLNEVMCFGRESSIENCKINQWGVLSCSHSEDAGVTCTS
test-readout: S/N

Query: Request the reported S/N associated with H1H27747P-N297Q (antibody, human IgG1, V domains shown) VH: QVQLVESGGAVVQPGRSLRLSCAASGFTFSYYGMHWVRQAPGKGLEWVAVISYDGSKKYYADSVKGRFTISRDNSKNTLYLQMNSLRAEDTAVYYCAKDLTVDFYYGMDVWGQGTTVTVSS VL: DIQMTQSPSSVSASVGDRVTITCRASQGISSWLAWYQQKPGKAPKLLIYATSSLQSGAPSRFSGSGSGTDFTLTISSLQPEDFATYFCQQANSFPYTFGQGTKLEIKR
Reply: 1

Query: Reported S/N for H1H27729P-N297Q (antibody, human IgG1, V domains shown) VH: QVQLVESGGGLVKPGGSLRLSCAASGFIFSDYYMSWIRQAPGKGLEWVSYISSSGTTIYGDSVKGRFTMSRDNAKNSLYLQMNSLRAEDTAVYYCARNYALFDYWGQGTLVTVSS VL: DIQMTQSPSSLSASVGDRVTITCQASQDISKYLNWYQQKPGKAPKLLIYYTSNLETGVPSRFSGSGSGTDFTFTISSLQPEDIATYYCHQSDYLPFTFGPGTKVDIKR : what is it?
Reply: 1

Query: S/N; subject: H1H21231N-N297Q (antibody, human IgG1, V domains shown) VH: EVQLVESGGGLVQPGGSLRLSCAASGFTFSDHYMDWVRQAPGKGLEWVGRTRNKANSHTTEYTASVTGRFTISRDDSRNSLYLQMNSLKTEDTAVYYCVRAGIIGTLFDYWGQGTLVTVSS VL: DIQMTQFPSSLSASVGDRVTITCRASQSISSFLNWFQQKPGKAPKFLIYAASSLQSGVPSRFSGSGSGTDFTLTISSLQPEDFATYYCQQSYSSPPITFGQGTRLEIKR
Reply: 1

Query: # lookup: S/N of H1H21227N-N297Q (antibody, human IgG1, V domains shown) VH: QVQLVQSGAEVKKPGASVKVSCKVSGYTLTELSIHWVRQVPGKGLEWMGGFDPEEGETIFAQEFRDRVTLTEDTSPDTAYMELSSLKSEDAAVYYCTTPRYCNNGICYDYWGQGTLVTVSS VL: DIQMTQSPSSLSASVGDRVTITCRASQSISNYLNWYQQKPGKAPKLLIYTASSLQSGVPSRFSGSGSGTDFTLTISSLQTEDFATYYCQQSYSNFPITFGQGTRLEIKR
Reply: 5

Query: I'd like to know its S/N. The binder in question is H1H27739P-N297Q (antibody, human IgG1, V domains shown) VH: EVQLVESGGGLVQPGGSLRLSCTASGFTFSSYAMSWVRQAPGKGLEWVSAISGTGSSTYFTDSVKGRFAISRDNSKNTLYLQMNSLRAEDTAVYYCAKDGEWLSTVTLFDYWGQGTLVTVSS VL: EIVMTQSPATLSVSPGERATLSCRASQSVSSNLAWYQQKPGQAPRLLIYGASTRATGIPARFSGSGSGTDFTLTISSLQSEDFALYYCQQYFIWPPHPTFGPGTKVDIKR
Reply: 1
